Test system: BT-549
measurement-description: NCI tumour cell line growth inhibition, 48 h
Activity calls are given as the source filed them. No stated cut-off is given here; in the data, active = GI50 up to about 1.1 µM and inactive = higher.
recorded-endpoint: GI50

compound="OC1(c2ccc(Cl)cc2)c2c(c3ccccc3c3ccccc23)C2=NCCN21 (centres undefined)" recorded_endpoint=GI50 measured="16.5 µM (inactive)"
compound="CCOC(=O)C1CCCCN1CCc1c[nH]c2ccccc12 (centres undefined)" recorded_endpoint=GI50 measured="75 µM (inactive)"
compound="CC(C)OC(=O)[C@H]1ON2O[C@H](O[C@@H]3CCCC[C@H]3c3ccccc3)C([Si](C)(C)c3ccccc3)[C@H]3OC(=O)[C@@H]1C32 (some centres undefined)" recorded_endpoint=GI50 measured="> 100 µM (inactive)"
compound=Cc1cc(-c2ccc(C(=O)C(Cl)(Cl)Cl)[nH]2)on1 recorded_endpoint=GI50 measured="33.3 µM (inactive)"

Data provenance: ChEMBL document CHEMBL1201862
